- ASSAY TARGET: STK17B (human) (UniProt O94768)
- Sequence (O94768 whole entry, looked up): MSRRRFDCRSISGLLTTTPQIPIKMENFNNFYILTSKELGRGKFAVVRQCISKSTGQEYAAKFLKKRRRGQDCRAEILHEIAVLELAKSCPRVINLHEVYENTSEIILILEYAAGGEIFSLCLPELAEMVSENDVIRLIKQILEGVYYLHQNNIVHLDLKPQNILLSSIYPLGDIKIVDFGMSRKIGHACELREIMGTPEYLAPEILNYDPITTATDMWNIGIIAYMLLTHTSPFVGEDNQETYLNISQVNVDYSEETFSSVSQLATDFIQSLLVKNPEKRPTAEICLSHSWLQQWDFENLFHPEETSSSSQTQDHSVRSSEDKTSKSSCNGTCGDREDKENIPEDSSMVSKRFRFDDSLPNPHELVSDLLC
- EXPERIMENTAL PROTOCOL: KINOMEscan competition binding
- RUN CONDITIONS: compound 10.0 µM
The entries below are paired with their reported kinase still bound, per cent of control.
Answer in %, number only, no unit symbol.

Example cases with answers are listed next.
O=C1Nc2ccc(I)cc2/C1=C/c1cc(Br)c(O)c(Br)c1	40
N#Cc1c(NC(=O)c2cccc3ccccc23)sc2c1CCCC2	100
CCC(=O)N1CCN(c2ccc(-n3c(=O)ccc4cnc5ccc(-c6cnc7ccccc7c6)cc5c43)cc2C(F)(F)F)CC1	67

Could you now look at the following compound, please?
Task: Requested field: kinase still bound, per cent of control. Item: "O=C(NOC[C@H](O)CO)c1ccc(F)c(F)c1Nc1ccc(I)cc1F"
Output: 100
